# credit: patent US9586946B2

target: 20S human constitutive proteasome (CT-L activity) (Homo sapiens, UniProt P28074); construct: purchased Boston Biochem; test: Inhibition of CT-L activity of the constitutive proteasome (Suc-LLVY-AMC fluorogenic substrate); format: biochemical; conditions: inhibitor at 5 μM; remaining enzyme activity; read-out: % CP activity (remaining activity of the enzyme)
Where a SMILES comes first, the peptide text is derived from it.
assay endpoint: remaining activity at 5 µM
Record the result as a number with its unit.

Tested system 20S human constitutive proteasome (CT-L activity) (Homo sapiens, UniProt P28074); remaining activity at 5 µM recorded for C=C(CCCc1ccccc1)N[C@@H](Cc1ccc(Cl)cc1)C(=O)N[C@H](Cc1ccccc1)C(=O)N[C@H](CCCNC(=N)N)C(=O)N[C@@H](Cc1c[nH]c2ccccc12)C(N)=O [Compound 17] was 41%

Tested system 20S human constitutive proteasome (CT-L activity) (Homo sapiens, UniProt P28074); remaining activity at 5 µM recorded for Cc1ccc(CSC[C@@H](NC(=O)c2cc(-c3ccccc3)nc3ccccc23)C(=O)NCCCN2CCCC2=O)cc1 [Compound 3] was 85%

Tested system 20S human constitutive proteasome (CT-L activity) (Homo sapiens, UniProt P28074); remaining activity at 5 µM recorded for CCOc1ccc2[nH]c3c(c2c1)CC(C(=O)NCC1CCCCC1)N[C@@H]3c1ccc(O)c([N+](=O)[O-])c1 (stereo partly shown) [Compound 8] was 106%

Tested system 20S human constitutive proteasome (CT-L activity) (Homo sapiens, UniProt P28074); remaining activity at 5 µM recorded for CCCCc1ccc2nc(-c3ccc(OC)cc3)cc(C(=O)NC[C@@H](C)C(=O)N3CCC[C@@H]3CO)c2c1 [Compound 4] was 98%

Tested system 20S human constitutive proteasome (CT-L activity) (Homo sapiens, UniProt P28074); remaining activity at 5 µM recorded for CC[C@H](C(=O)C(=O)NCCCN1CCOCC1)N1CC(C)C[C@@H](NC(=O)OCc2ccccc2)C1=O (stereo partly shown) [Compound 6] was 94%

Tested system 20S human constitutive proteasome (CT-L activity) (Homo sapiens, UniProt P28074); remaining activity at 5 µM recorded for N=C(N)NCCC[C@@H]1NC(=O)[C@H](Cc2ccccc2)NC(=O)[C@@H](Cc2ccc(O)cc2)NC(=O)CNC(=O)[C@@H](Cc2c[nH]c3ccccc23)NC1=O [Compound 5] (HELM PEPTIDE1{F.R.[dW].G.[dY]}$PEPTIDE1,PEPTIDE1,1:R1-5:R2$$$V2.0) was 82%

Tested system 20S human constitutive proteasome (CT-L activity) (Homo sapiens, UniProt P28074); remaining activity at 5 µM recorded for COc1ccccc1C(=O)N/C(=C/c1ccc(Br)cc1)C(=O)Nc1ccc(S(=O)(=O)/N=c2\[nH]ccs2)cc1 [Compound 13] was 88%

Tested system 20S human constitutive proteasome (CT-L activity) (Homo sapiens, UniProt P28074); remaining activity at 5 µM recorded for CCN1CCN(CCCN2C(=O)C3[C@H](C(=O)Nc4cc(C)cc(C)c4)[C@@H]4C=C[C@]3(O4)[C@H]2C(=O)N[C@@H]2CCC[C@H](C)[C@H]2C)CC1 (stereo partly shown) [Compound 10] was 85%

Tested system 20S human constitutive proteasome (CT-L activity) (Homo sapiens, UniProt P28074); remaining activity at 5 µM recorded for CCC[C@H]1C[C@H](C(=O)N[C@@H]([C@@H]2O[C@H](SC)[C@@H](O)[C@@H](O)[C@@H]2O)[C@@H](C)O)[N@@H+](C)C1 [Compound 2] was 98%

Tested system 20S human constitutive proteasome (CT-L activity) (Homo sapiens, UniProt P28074); remaining activity at 5 µM recorded for CC[C@@H](O)CNC(=O)C[C@@H]1CCN(Cc2ccc(C)s2)C[C@@H]1[C@H]1CC(c2ccccc2OC)=NO1 [Compound 12] was 72%

Tested system 20S human constitutive proteasome (CT-L activity) (Homo sapiens, UniProt P28074); remaining activity at 5 µM recorded for O=C(C[C@@H]1CCN(CC2CC2)C[C@@H]1[C@H]1CC(c2ccccc2Cl)=NO1)NCCc1ccccn1 [Compound 9] was 86%

Tested system 20S human constitutive proteasome (CT-L activity) (Homo sapiens, UniProt P28074); remaining activity at 5 µM recorded for O=C(CC[C@H](NC(=O)c1cc(-c2ccoc2)nc2ccccc12)C(=O)NCc1cc(F)ccc1F)OC1CCCCC1 [Compound 15] was 80%

Tested system 20S human constitutive proteasome (CT-L activity) (Homo sapiens, UniProt P28074); remaining activity at 5 µM recorded for COc1ccc(-c2cc(C(=O)N[C@H](CCC(=O)OC3CCCCC3)C(=O)NCCc3ccncc3)c3ccccc3n2)cc1C [Compound 11] was 80%
